FYI, the data here is from the supplement of paper PMC8671470.

- Test system: myeloid leukemia patient primary cells Pat.15
- Assay text: cell viability (% survival relative to DMSO control); higher = less cytotoxic
- Assay context: 100 nM; 72 h

Compound: COc1cc(/C=C/C(=O)N2CCC=CC2=O)cc(OC)c1OC [Piperlongumine]
cell viability [%]: 98.5
--
Compound: O=C(O)C1=CC(=C(c2ccc(O)c(C(=O)O)c2)c2ccc(O)c(C(=O)O)c2)C=CC1=O [Aurintricarboxylic acid]
cell viability [%]: 89.3
--
Compound: Oc1ccc(Nc2nc(-c3ccc(Cl)cc3)cs2)cc1 [SKI II]
cell viability [%]: 85.9
--
Compound: O=C(C1CC1)N1CC[C@@H](C=C2NNC(=O)N2c2ccc(-c3ccc4occc4c3)cc2)C1
cell viability [%]: 95.7
--
Compound: O=C1c2cc([N+](=O)[O-])ccc2-n2c1nc1ccccc1c2=O [GNF-Pf-3777]
cell viability [%]: 96.8

###

- Tested on: LAMA-84
- Assay text: cell viability (% survival relative to DMSO control, bortezomib = 0%); higher = less cytotoxic
- Assay context: 100 nM; 72 h

Compound: Oc1ccc(Nc2nc(-c3ccc(Cl)cc3)cs2)cc1 [SKI II]
cell viability, %: 96.1
--
Compound: O=c1cc(-c2ccccc2)oc2cc(O)c(O)c(O)c12 [Baicalein]
cell viability, %: 94.4
--
Compound: Cc1c(-c2ccc(-c3ccccc3F)cc2)nc2ccc(F)cc2c1C(=O)O [Brequinar]
cell viability, %: 94.2
--
Compound: CC[C@H](C)C(=O)O[C@H]1C[C@@H](C)C=C2C=C[C@H](C)[C@H](CC[C@@H]3C[C@@H](O)CC(=O)O3)[C@H]21 [Lovastatin]
cell viability, %: 104

###

- Tested on: KCL-22
- Assay text: cell viability (% survival relative to DMSO control, bortezomib = 0%); higher = less cytotoxic
- Assay context: 10000 nM; 72 h
Parameter cell viability: see the listing below.

Molecule: O=C(O)C[C@@]1(O)C[C@@H](CCCCCCc2ccc(Cl)cc2Cl)OC1=O
cell viability, %: 112
--
Molecule: O=C(O)c1cc(N=Nc2ccc(S(=O)(=O)Nc3ccccn3)cc2)ccc1O
cell viability, %: 124
--
Molecule: CC(C)c1cc2c(c(O)c1O)[C@@]1(C(=O)O)CCCC(C)(C)[C@@H]1CC2
cell viability, %: 90.7
--
Molecule: O=C(C1CC1)N1CC[C@@H](C=C2NNC(=O)N2c2ccc(-c3ccc4occc4c3)cc2)C1
cell viability, %: 58.3
--
Molecule: Cc1cn([C@H]2C[C@H](O)[C@@H](COP(=O)(O)OP(=O)(O)O)O2)c(=O)[nH]c1=O [Thymidine diphosphate]
cell viability, %: 85.6
--
Molecule: N#Cc1ccnc(N2C(=O)CC[C@H]2C(=O)N(c2cncc(F)c2)C(C(=O)NC2CC(F)(F)C2)c2ccccc2Cl)c1 (some centres not stated)
cell viability, %: 93.3
--
Molecule: C=C(C=NNC(=N)N)NNC(=N)N
cell viability, %: 42
--
Molecule: COc1ccc(CNC(=O)Nc2ncc([N+](=O)[O-])s2)cc1
cell viability, %: 79.7
--
Molecule: O=C(O)C(=O)CBr
cell viability, %: 106
--
Molecule: COc1cc(/C=C/C(=O)N2CCC=CC2=O)cc(OC)c1OC
cell viability, %: 1.29
--
Molecule: CCCCC/C=C\C/C=C\C/C=C\C/C=C\CCCCN1C(=O)C=CC1=O [N-Arachidonylmaleimide]
cell viability, %: 95
--
Molecule: O=C(O)Cn1nnc(-c2cc(N3CCC(Oc4cc(F)ccc4Br)CC3)no2)n1
cell viability, %: 60.1
